From: PubChem BioAssay AID588564

Target: Neuropeptides B/W receptor type 1 (Homo sapiens) (UniProt P48145)
Test: GPR7 antagonists, dose response, cell-based, fluorescence, set 4 (AID 588564)
Conditions: GPR7-expressing cells, fluorescence antagonist assay; run 1
Activity calls are given as the source filed them. Rule as the data show it: active = IC50 below about 10 µM; inactive = the rest.
Attribute Measured: IC50

compound="COc1ccc(Oc2c(Cl)cnn(C(C)c3cccc4ccccc34)c2=O)cc1 (centres undefined)" experimental_target="Neuropeptides B/W receptor type 1 (Homo sapiens) (UniProt P48145)" assay_value="1.92 µM"
compound="COc1ccc(Oc2c(Cl)cnn(C(CO)c3ccccc3)c2=O)cc1 (centres undefined)" experimental_target="Neuropeptides B/W receptor type 1 (Homo sapiens) (UniProt P48145)" assay_value="6.05 µM"
compound=CCOc1ccc(Oc2ccnn(Cc3cccc4ccccc34)c2=O)cc1 experimental_target="Neuropeptides B/W receptor type 1 (Homo sapiens) (UniProt P48145)" assay_value="4.39 µM"
compound=COc1ccc(Oc2c(Cl)c(-c3ccc(C(F)(F)F)cc3)nn(Cc3ccccc3C)c2=O)cc1 experimental_target="Neuropeptides B/W receptor type 1 (Homo sapiens) (UniProt P48145)" assay_value="5.15 µM"
compound=O=C(c1cnn(-c2ccc(Cl)cc2)c1C(F)(F)F)N1CCN(c2ccc([N+](=O)[O-])cc2)CC1 experimental_target="Neuropeptides B/W receptor type 1 (Homo sapiens) (UniProt P48145)" assay_value="1.28 µM"
compound=COc1ccc(Oc2c(Cl)cnn(Cc3ccc4c(c3)OCO4)c2=O)cc1 experimental_target="Neuropeptides B/W receptor type 1 (Homo sapiens) (UniProt P48145)" assay_value="1.57 µM"
compound=COc1ccc(Oc2c(-c3ccsc3)c(-c3ccsc3)nn(Cc3ccccc3C)c2=O)cc1 experimental_target="Neuropeptides B/W receptor type 1 (Homo sapiens) (UniProt P48145)" assay_value="4.78 µM"
compound=Cc1cccc(Cn2ncc(Cl)c(Oc3ccc(CO)cc3)c2=O)c1 experimental_target="Neuropeptides B/W receptor type 1 (Homo sapiens) (UniProt P48145)" assay_value="4.7 µM"
compound=COc1ccc(Oc2c(C#N)cnn(-c3ccc(Br)cc3)c2=O)cc1 experimental_target="Neuropeptides B/W receptor type 1 (Homo sapiens) (UniProt P48145)" assay_value="6.41 µM"
compound="COc1ccc(Oc2c(Cl)cnn(C(CO)c3cccc4ccccc34)c2=O)cc1 (centres undefined)" experimental_target="Neuropeptides B/W receptor type 1 (Homo sapiens) (UniProt P48145)" assay_value="2.47 µM"
compound=Cc1cc(C)cc(Cn2ncc(Cl)c(Oc3ccc(CO)cc3)c2=O)c1 experimental_target="Neuropeptides B/W receptor type 1 (Homo sapiens) (UniProt P48145)" assay_value="1.06 µM"
compound=COc1ccc(Oc2c(Cl)cnn(C3=Nc4ccccc4Sc4ccccc43)c2=O)cc1 experimental_target="Neuropeptides B/W receptor type 1 (Homo sapiens) (UniProt P48145)" assay_value="> 20 µM (inactive)"
compound=COc1ccc(Oc2c(Cl)cnn(CC(=O)c3ccc(C)cc3C)c2=O)cc1 experimental_target="Neuropeptides B/W receptor type 1 (Homo sapiens) (UniProt P48145)" assay_value="2.12 µM"
compound="O=C(C1CCCN1Cc1ccc(Cl)c(Cl)c1)N1CCN(c2ccc([N+](=O)[O-])cc2)CC1 (centres undefined)" experimental_target="Neuropeptides B/W receptor type 1 (Homo sapiens) (UniProt P48145)" assay_value="2.34 µM"
compound=COc1ccc(Oc2c(/C=N\O)cnn(Cc3cccc4ccccc34)c2=O)cc1 experimental_target="Neuropeptides B/W receptor type 1 (Homo sapiens) (UniProt P48145)" assay_value="8.29 µM"
compound=COc1ccc(Oc2c(C)cnn(Cc3cccc4ccccc34)c2=O)cc1 experimental_target="Neuropeptides B/W receptor type 1 (Homo sapiens) (UniProt P48145)" assay_value="9.44 µM"
compound="COc1ccc(Oc2c(Cl)cnn(C(C(=O)OCCC3CCCC3)c3ccccc3Cl)c2=O)cc1 (centres undefined)" experimental_target="Neuropeptides B/W receptor type 1 (Homo sapiens) (UniProt P48145)" assay_value="4.34 µM"
compound=COc1ccc(Oc2c(Br)nn(-c3cccc(C)c3)c(=O)c2Oc2ccc(OC)cc2)cc1 experimental_target="Neuropeptides B/W receptor type 1 (Homo sapiens) (UniProt P48145)" assay_value="0.36 µM"
compound=COCc1ccc(Oc2c(Cl)cnn(Cc3cccc4ccccc34)c2=O)cc1 experimental_target="Neuropeptides B/W receptor type 1 (Homo sapiens) (UniProt P48145)" assay_value="5.14 µM"
compound=COc1ccc(Oc2c(Cl)c(-c3ccccc3C)nn(Cc3ccccc3C)c2=O)cc1 experimental_target="Neuropeptides B/W receptor type 1 (Homo sapiens) (UniProt P48145)" assay_value="2.97 µM"
compound=COc1ccc(Oc2c(C#N)cnn(Cc3ccccc3C)c2=O)cc1 experimental_target="Neuropeptides B/W receptor type 1 (Homo sapiens) (UniProt P48145)" assay_value="8.13 µM"
compound=COc1ccc(Oc2c(Cl)c(Br)nn(Cc3ccccc3C)c2=O)cc1 experimental_target="Neuropeptides B/W receptor type 1 (Homo sapiens) (UniProt P48145)" assay_value="0.544 µM"
compound=O=Cc1ccc(Oc2c(Cl)cnn(Cc3cccc4ccccc34)c2=O)cc1 experimental_target="Neuropeptides B/W receptor type 1 (Homo sapiens) (UniProt P48145)" assay_value="2.26 µM"

---

Biological target: Neuropeptides B/W receptor type 1 (Homo sapiens)
Assay: GPR7 antagonists, dose response, cell-based, fluorescence, set 4 (AID 588564)
Conditions: GPR7-expressing cells, fluorescence antagonist assay; run 1
Parameter: IC50. Scope: all listed entries.
Attribute Measured: IC50

compound=COc1ccc(Oc2c(Cl)cnn(-c3ccc(Cl)cc3)c2=O)cc1 assay_value="1220 nM"
compound=COc1ccc(Oc2c(Cl)cnn(Cc3cc(Cl)ccc3Cl)c2=O)cc1 assay_value="730 nM"
compound=O=c1c(Oc2ccc(OC(F)(F)F)cc2)c(Cl)cnn1Cc1cccc2ccccc12 assay_value="5560 nM"
compound="COc1ccc(Oc2c(Cl)cnn(C(c3ccccc3)c3ccccc3C)c2=O)cc1 (stereo not given)" assay_value="1630 nM"

---

Molecular target: Neuropeptides B/W receptor type 1 (Homo sapiens) (UniProt P48145)
Assay: GPR7 antagonists, dose response, cell-based, fluorescence, set 4 (AID 588564)
Conditions: GPR7-expressing cells, fluorescence antagonist assay; run 2
Attribute Measured: IC50

smiles_record=COc1ccc(Oc2c(Cl)cnn(-c3ccc(C)c(C)c3)c2=O)cc1 experimental_target="Neuropeptides B/W receptor type 1 (Homo sapiens) (UniProt P48145)" assay_value="520 nM"

---

Target: Neuropeptides B/W receptor type 1 (Homo sapiens) (UniProt P48145)
Assay: GPR7 antagonists, dose response, cell-based, fluorescence, set 4 (AID 588564)
Conditions: GPR7-expressing cells, fluorescence antagonist assay; run 1
Calls of active or inactive are those of the source. Cut-off read from the data, not from the text of the source: active = IC50 below about 10 µM; inactive = the rest.
Possible outcomes: active, inactive

compound=COc1ccc(Oc2c(Cl)c(OC)nn(-c3cccc(C)c3)c2=O)cc1 group_label=active
compound="CCOC(=O)C(c1ccccc1Cl)n1ncc(Cl)c(Oc2ccc(OC)cc2)c1=O (stereo not given)" group_label=active
compound=O=c1c(Oc2ccc(Oc3ccccc3)cc2)c(Cl)cnn1Cc1cccc2ccccc12 group_label=inactive
compound=COc1ccc(Oc2c(Cl)cnn(Cc3ccc(OC(C)C)c(C#N)c3)c2=O)cc1 group_label=active
compound=COc1ccc(Oc2c(Cl)cnn(Cc3ccc(Cl)cc3Cl)c2=O)cc1 group_label=active
compound=CC(C)c1ccc(Oc2c(Cl)cnn(Cc3cccc4ccccc34)c2=O)cc1 group_label=active
compound=CC(C)c1ccc(-n2ncc(Cl)c(Oc3ccc(O)cc3)c2=O)cc1 group_label=active
compound=O=c1c(Oc2ccc(OC(F)(F)F)cc2)c(Cl)cnn1C1c2ccccc2-c2ccccc21 group_label=active
compound=Cc1ccccc1Cn1ncc(Cl)c(Oc2ccc(CO)cc2)c1=O group_label=active
compound=COc1cccc(Oc2c(Cl)cnn(-c3cc(C)cc(C)c3)c2=O)c1 group_label=active

---

Target: Neuropeptides B/W receptor type 1 (Homo sapiens) (UniProt P48145)
Assay: GPR7 antagonists, dose response, cell-based, fluorescence, set 4 (AID 588564)
Conditions: GPR7-expressing cells, fluorescence antagonist assay; run 1
Activity calls are given as the source filed them. No stated cut-off is given here; in the data, active means IC50 below about 10 µM; inactive means the rest.
Possible outcomes: active, inactive

smiles_record=CCOc1ccc(Cn2ncc(Cl)c(Oc3ccc(OC)cc3)c2=O)cc1C#N experimental_target="Neuropeptides B/W receptor type 1 (Homo sapiens) (UniProt P48145)" group_label=inactive
smiles_record=Cc1cc(C)cc(-n2ncc(Cl)c(Oc3ccc(Oc4ccccc4)cc3)c2=O)c1 experimental_target="Neuropeptides B/W receptor type 1 (Homo sapiens) (UniProt P48145)" group_label=active
smiles_record=COc1ccc(Oc2c(Cl)c(-c3ccc(C)cc3)nn(Cc3ccccc3C)c2=O)cc1 experimental_target="Neuropeptides B/W receptor type 1 (Homo sapiens) (UniProt P48145)" group_label=active
smiles_record=C=Cc1cnn(Cc2cccc3ccccc23)c(=O)c1Oc1ccc(OC)cc1 experimental_target="Neuropeptides B/W receptor type 1 (Homo sapiens) (UniProt P48145)" group_label=active
smiles_record=COc1ccc(Oc2c(Cl)cnn(Cc3ccc(C(C)C)cc3)c2=O)cc1 experimental_target="Neuropeptides B/W receptor type 1 (Homo sapiens) (UniProt P48145)" group_label=active
